Data provenance: patent US5284829A

- system: cercarial protease (Schistosoma mansoni)
- Construct: Serine protease was isolated from the acetabular glands of cercariae as described previously in McKerrow et al., 1985; from tissue; host or cells: acetabular glands of cercariae
- Sequence (P12546 28-264): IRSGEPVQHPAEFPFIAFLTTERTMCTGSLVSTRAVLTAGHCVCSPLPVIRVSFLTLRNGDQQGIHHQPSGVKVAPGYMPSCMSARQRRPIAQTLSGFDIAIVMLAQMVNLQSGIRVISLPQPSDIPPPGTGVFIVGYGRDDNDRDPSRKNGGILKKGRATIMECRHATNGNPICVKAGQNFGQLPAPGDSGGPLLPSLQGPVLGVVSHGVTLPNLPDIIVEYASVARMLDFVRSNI
- Type: biochemical
- testSettings: substrate hydrolysis, 100 mM glycine/NaOH, 2 mM CaCl2, pH 9.0; Lineweaver-Burk
Where a SMILES comes first, the peptide text is derived from it. The star is where a group is joined. pNA = O=[N+]([O-])c1ccc(N*)cc1; MeOSuc = COC(=O)CCC(=O)*; SBn = c1ccc(CS*)cc1
Form field: Km (one value per entry).
Give the value; after it, write the unit.

For the molecule COC(=O)CCC(=O)N[C@@H](C)C(=O)N[C@@H](C)C(=O)N1CCC[C@H]1C(=O)N[C@@H](CCSC)C(=O)Nc1ccc([N+](=O)[O-])cc1 [MeO-Suc-Ala-Ala-Pro-Met-pNA] (MeOSuc-AAPM-pNA) , report Km.
300 µM

For the molecule COC(=O)CCC(=O)N[C@@H](C)C(=O)N[C@@H](C)C(=O)N1CCC[C@H]1C(=O)N[C@@H](CC(C)C)C(=O)Nc1ccc([N+](=O)[O-])cc1 [MeO-Suc-Ala-Ala-Pro-Leu-pNA] (MeOSuc-AAPL-pNA) , report Km.
118 µM

Next:
For the molecule COC(=O)CCC(=O)N[C@@H](C)C(=O)N[C@@H](C)C(=O)N1CCC[C@H]1C(=O)N[C@@H](CC(C)C)C(=O)SCc1ccccc1 [MeO-Suc-Ala-Ala-Pro-Leu-Sbzl] (MeOSuc-AAPL-SBn) , report Km.
464 µM
